- Tested on: Bacillus subtilis
- measurement.description: Antimicrobial activity against Bacillus subtilis ATCC 6633 by MTT assay
- Assay type: functional
This listing pairs molecules with measured MIC.
measured.attribute: MIC (µg/mL)

>>> measured_value("CC(=O)N1N=C(c2ccc(C)c(C)c2)CC1c1ccc(F)cc1 (centres undefined)")
25
>>> measured_value("COc1ccc(C2=NN(C(C)=O)C(c3ccc(OC)cc3)C2)cc1 (centres undefined)")
6.25
>>> measured_value("CC(=O)N1N=C(c2ccc(Cl)cc2)CC1c1ccccc1 (centres undefined)")
12.5
>>> measured_value("CC(=O)N1N=C(c2ccc(Cl)c(Cl)c2)CC1c1ccc(Cl)cc1 (centres undefined)")
0.78
>>> measured_value("CC(=O)N1N=C(c2ccc(Cl)cc2)CC1c1ccc(Cl)cc1 (centres undefined)")
12.5
>>> measured_value("CC(=O)N1N=C(c2ccc(Cl)cc2)CC1c1ccc(F)cc1 (centres undefined)")
12.5
>>> measured_value("CC(=O)N1N=C(c2ccccc2F)CC1c1ccccc1Cl (centres undefined)")
6.25
>>> measured_value("CC(=O)N1N=C(c2ccc(Br)cc2)CC1c1ccc(Br)cc1 (centres undefined)")
12.5
>>> measured_value("CC(=O)N1N=C(c2ccc(Cl)c(Cl)c2)CC1c1ccccc1 (centres undefined)")
6.25
>>> measured_value("CC(=O)N1N=C(c2ccc(Cl)c(Cl)c2)CC1c1ccc(C)cc1 (centres undefined)")
6.25
>>> measured_value("COc1cc(OC)cc(C2CC(c3ccccc3)=NN2C(C)=O)c1 (centres undefined)")
12.5
>>> measured_value("CC(=O)N1N=C(c2ccccc2)CC1c1ccc(Br)cc1 (centres undefined)")
25
>>> measured_value("COc1ccc(C2CC(c3ccc(Cl)cc3)=NN2C(C)=O)cc1 (centres undefined)")
12.5
>>> measured_value("CC(=O)N1N=C(c2ccc(Cl)c(Cl)c2)CC1c1ccc(F)cc1 (centres undefined)")
1.56
>>> measured_value("COc1ccc(C2=NN(C(C)=O)C(c3ccccc3Cl)C2)cc1 (centres undefined)")
25
>>> measured_value("COc1ccc(C2CC(c3ccc(Cl)c(Cl)c3)=NN2C(C)=O)cc1 (centres undefined)")
3.12
>>> measured_value("CC(=O)N1N=C(c2ccc(Cl)c(Cl)c2)CC1c1ccc(Br)cc1 (centres undefined)")
1.56
>>> measured_value("COc1ccc(C2=NN(C(C)=O)C(c3ccccc3)C2)cc1 (centres undefined)")
6.25
>>> measured_value("CC(=O)N1N=C(c2ccc(Br)cc2)CC1c1ccc(Cl)cc1 (centres undefined)")
25
>>> measured_value("COc1cc(OC)cc(C2CC(c3ccc(Cl)cc3)=NN2C(C)=O)c1 (centres undefined)")
6.25
>>> measured_value("CC(=O)N1N=C(c2ccccc2F)CC1c1ccc(C)cc1 (centres undefined)")
25
>>> measured_value("COc1ccc(C2=NN(C(C)=O)C(c3ccc(F)cc3)C2)cc1 (centres undefined)")
6.25
>>> measured_value("COc1ccc(C2CC(c3ccccc3F)=NN2C(C)=O)cc1 (centres undefined)")
6.25
>>> measured_value("COc1ccc(C2CC(c3ccc(C)c(C)c3)=NN2C(C)=O)cc1 (centres undefined)")
12.5
